Origin of the recorded values: ChEMBL document CHEMBL5505978

# assayProtocol: in vitro
# setupConditions: green monkey (Chlorocebus sabaeus), Vero cells
# Description: Antiproliferative activity against green monkey Vero cells assessed as inhibition of cell growth incubated for 3 to 5 days by CCK-8 assay
For each record, write down the corresponding pIC50.
Numbers only, as −log10 of the molar value.

N#CC(C#N)=C1C=C(/C=C/c2ccc(O)cc2)Oc2ccc(O)cc21 = 5.84

Then there is this molecule:
# input Please report the recorded pIC50 for N#CC(C#N)=C1C=C(/C=C/c2ccc(O)c(NC(=O)CCCCCCC(=O)NO)c2)Oc2ccccc21 .
# output 5.21
